Assign vapor or sublimation pressure to each entry below.
# Settings: 333.15 K; Liquid
Numbers after ± are expanded uncertainties.

Bench note: what vapor or sublimation pressure did CCCC(C)O (centres undefined) [pentan-2-ol] show?
7.52 ± 0.6 kPa

Next compound up: CCC(C)O (centres undefined) [butan-2-ol]
18.2 ± 1.5 kPa

Next compound up: CCC(C)(C)O [2-methylbutan-2-ol]
17.87 ± 1.4 kPa

Next compound up: C1CCCCC1 [cyclohexane]
51.92 ± 4.2 kPa

###

# Settings: 343.15 K; Liquid
Recorded endpoint: vapor or sublimation pressure (kPa)
Could you give me the number in kPa? Just the number is fine.

Bench note: what vapor or sublimation pressure did C1CCCCC1 show?
72.6

Next compound up: CCC(C)O (centres undefined)
29.76

Next compound up: CCC(C)(C)O
28.95

Next compound up: CCCC(C)O (centres undefined)
13

###

# Settings: 353.15 K; Liquid
Recorded endpoint: vapor or sublimation pressure (kPa)
Could you give me the number in kPa? Just the number is fine.

Bench note: what vapor or sublimation pressure did C1CCCCC1 show?
99.31

Next compound up: CCCC(C)O (centres undefined)
21.2

Next compound up: CCC(C)(C)O
44.87

Next compound up: CCC(C)O (centres undefined)
46.75
